src = patent EP4585618A1

# Target desc: T1, His-tagged ILT4 protein extracellular domain: ILT4-His (human, UniProt Q8N423 22-460)
# T1 construct: Expressed in 293 cells; also called human ILT4-His protein
# T1 sequence (Q8N423 other isoform, or with tags, fused parts or gaps limits assumed): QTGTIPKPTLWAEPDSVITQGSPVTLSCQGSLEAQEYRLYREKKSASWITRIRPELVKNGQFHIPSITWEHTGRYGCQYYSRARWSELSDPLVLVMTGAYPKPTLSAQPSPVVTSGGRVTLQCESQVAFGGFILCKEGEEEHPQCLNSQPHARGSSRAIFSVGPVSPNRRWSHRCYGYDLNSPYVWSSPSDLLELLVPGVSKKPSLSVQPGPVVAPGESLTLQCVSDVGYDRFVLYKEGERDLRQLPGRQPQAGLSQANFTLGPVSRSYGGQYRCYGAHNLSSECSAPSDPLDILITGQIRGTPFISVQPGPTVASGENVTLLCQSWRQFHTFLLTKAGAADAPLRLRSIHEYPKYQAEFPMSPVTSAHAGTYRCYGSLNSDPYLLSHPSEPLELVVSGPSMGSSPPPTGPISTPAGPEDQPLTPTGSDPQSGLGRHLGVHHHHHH
# Measurement notes: screening of chimeric antibodies (ILT4 protein binding, cell binding, ILT4/HLA-G blocking)

- Binder: "chimeric antibody ChP2-E3 (antibody, human IgG4 S228P, kappa, F234A L235A, V domains shown, Murine variable regions with hIgG4(LALA) and CL constant regions; also called M P2-E3) VH: EVQLQQSGPELVKPGASVKISCKASGYTFTDYYMNWVKQSHGKSLEWIGDINPNNGGTSYNQKFKGKATLTVDKSSSTAYMELRSLTSEDSTVYYCARGGVTTVVATYWYFDVWGTGTTVTVSS VL: DIQMTQSPASLSVSVGETVTITCRASENIYSNLAWYQQKQGKSPQLLVYAATNVADGVPSRFSGGGSGTQYSLKINSLQSEDFGSYYCQQFWDTPFTFGSGTKLEIKR"
  binding result: "binds"
- Binder: "chimeric antibody ChP2-F10 (antibody, human IgG4 S228P, kappa, F234A L235A, V domains shown, Murine variable regions with hIgG4(LALA) and CL constant regions; also called M P2-F10) VH: DVQLQESGPGLVKPSQSLSLTCSVTGYSIASGYYWNWIRQFPGNKLEWMGYITYDGSNNYNPSLKNRISITRDTSKNQFFLKLNSVTTEDTATYYCAREYSYGSTLSWFAYWGQGTLVTVSS VL: DIQMTQSPASLSISVGETVTITCRASENIYSNLAWYQQKQGKSPQLLVYAATNLADGVPSRFSGSGSGTQYSLKINSLQSEDFGSYYCQHFWDTPYTFGGGTKLEIKR"
  binding result: "binds"
- Binder: "chimeric antibody ChP1-D10 (antibody, human IgG4 S228P, kappa, F234A L235A, V domains shown, Murine variable regions with hIgG4(LALA) and CL constant regions; also called M P1-D10) VH: QVQLKQSGPGLVQPSQSLSITCTVSGFSLTTYGVHWVRQSPGKGLEWLGVIWSGGNTDSNAAFISRLSISKDNSKSQVFFKMNNLQADDTAIYYCARYSYAMDYWGQGTSVTVSS VL: DIVMTQSHKFMSTSVGDRVSITCKASQDVSNGVAWYQQKPGQSPKVLIYAASYRYTGVPDRFTGSGSGTDFTFTIGSVQAEDLALYYCQQHYSTPFTFGSGTMLEIKR"
  binding result: "binds"
